- study_target: LPA1 receptor (Mus musculus)
- Construct: expressed in transfected cells
- Sequence (P61793 whole entry): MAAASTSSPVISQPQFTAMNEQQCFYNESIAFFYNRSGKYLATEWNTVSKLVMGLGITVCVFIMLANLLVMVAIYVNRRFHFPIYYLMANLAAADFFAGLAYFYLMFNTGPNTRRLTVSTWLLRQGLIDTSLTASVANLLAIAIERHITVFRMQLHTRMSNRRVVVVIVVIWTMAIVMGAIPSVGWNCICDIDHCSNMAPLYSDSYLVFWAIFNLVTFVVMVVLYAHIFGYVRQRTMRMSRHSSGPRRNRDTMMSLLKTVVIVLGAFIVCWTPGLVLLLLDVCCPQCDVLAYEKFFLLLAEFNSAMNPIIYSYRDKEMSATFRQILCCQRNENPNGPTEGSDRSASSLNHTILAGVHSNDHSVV
- assay_name: Intracellular calcium concentration response to LPA, C9 cells overexpressing LPA1
- Format: cell-based
- experimental_parameters: LPA1-overexpressing cells; read-out: EC50, increase in intracellular calcium concentration
- Description: C9 cells (Clone 9, rat hepatic epithelial cells, CRL-1439™), obtained directly from American Type Culture Collection, were cultured in Ham’s F12 Kaighn’s modification medium supplemented with 10% fetal bovine serum, 100 μg/ml streptomycin, 100 units/ml penicillin and 0.25 μg/ml amphotericin B at 37°C under a 95% air and 5% CO2 atmosphere, as described previously. […] This procedure has been described previously. […] The intracellular calcium concentration was calculated as described by Grynkiewicz et al.. […]
pEC50: −log10 of the molar value.
measured_property: pEC50

Quick note, pEC50 for CCCCCCCC/C=C\CCCCCCCC(=O)OC[C@@H](O)COP(=O)(O)O [LPA] landed at 6.40 to 6.70
